PROTOCOL SUMMARY: qHTS assay to identify small molecule antagonists of the glucocorticoid receptor (GR) signaling pathway - cell viability counter screen (AID 720693); also: nearly all actives have a fitted effect of over 55% in size
TEST CONTEXT: GR-bla HeLa viability, CellTiter-Glo luminescence, 18 h, with 5 nM dexamethasone present; series mostly up to 58.5 µM
Records with an inconclusive call do not appear. Active and inactive are the calls of the source. Calls follow the shape of the dose curve; as a rule, active = well fitted cell-killing curve with a large enough effect in the repeat runs; inconclusive = weak or mixed curves, or effect the other way; inactive = no such curve, though single readings can be large or run the other way.
Possible outcomes: active, inactive

>  <COMPOUND>
O=c1[nH]ncc2ccccc12

>  <CATEGORY LABEL>
inactive

$$$$
>  <COMPOUND>
C[C@@H]1CN(CCCn2c3ccccc3c3ccccc32)C[C@H](C)N1

>  <CATEGORY LABEL>
inactive

$$$$
>  <COMPOUND>
CN1C(C(=O)Nc2ccccn2)=C(O)c2sccc2S1(=O)=O

>  <CATEGORY LABEL>
inactive

$$$$
>  <COMPOUND>
NC1[C@H]2CN(c3nc4c(cc3F)c(=O)c(C(=O)O)cn4-c3ccc(F)cc3F)C[C@@H]12 (some centres undefined)

>  <CATEGORY LABEL>
inactive

$$$$
>  <COMPOUND>
Cc1[nH]cnc1CN1CCc2c(c3ccccc3n2C)C1=O

>  <CATEGORY LABEL>
inactive

$$$$
>  <COMPOUND>
COC(=O)CS

>  <CATEGORY LABEL>
inactive

$$$$
>  <COMPOUND>
CC1CC(OC(=O)C(O)c2ccccc2)CC(C)(C)N1C (centres undefined)

>  <CATEGORY LABEL>
inactive

$$$$
>  <COMPOUND>
CCCCOc1ccc(OCCCN2CCOCC2)cc1

>  <CATEGORY LABEL>
inactive

$$$$
>  <COMPOUND>
CN1C(=O)N(c2ccccc2Br)Cc2cnc(Nc3ccc4c(c3)OCC(CO)O4)nc21 (centres undefined)

>  <CATEGORY LABEL>
active

$$$$
>  <COMPOUND>
CC(=O)OCC[N+](C)(C)C

>  <CATEGORY LABEL>
inactive

$$$$
>  <COMPOUND>
CN1C(=O)c2ccccc2C1=O

>  <CATEGORY LABEL>
inactive

$$$$
>  <COMPOUND>
Cc1cc(C)cc(N)c1

>  <CATEGORY LABEL>
inactive

$$$$
>  <COMPOUND>
CC/C=C1/OC(=O)c2ccccc21

>  <CATEGORY LABEL>
inactive

$$$$
>  <COMPOUND>
CCC(OCCCOC)OC(C)=O (centres undefined)

>  <CATEGORY LABEL>
inactive

$$$$
>  <COMPOUND>
CCCCCC#CC(=O)OC

>  <CATEGORY LABEL>
inactive

$$$$
>  <COMPOUND>
CCC=CC#N

>  <CATEGORY LABEL>
inactive

$$$$
>  <COMPOUND>
CC(C)=CCC1C(=O)N(c2ccccc2)N(c2ccccc2)C1=O

>  <CATEGORY LABEL>
inactive

$$$$
>  <COMPOUND>
CC(=O)OCC(=O)NCCCOc1cccc(CN2CCCCC2)c1

>  <CATEGORY LABEL>
inactive

$$$$
>  <COMPOUND>
CN1CCCN=C1COC(=O)C(O)(c1ccccc1)C1CCCCC1 (centres undefined)

>  <CATEGORY LABEL>
inactive

$$$$
>  <COMPOUND>
Cc1ccc2c(Br)cc(Br)c(O)c2n1

>  <CATEGORY LABEL>
inactive

$$$$
>  <COMPOUND>
CC(C)(c1ccccc1)c1ccccc1

>  <CATEGORY LABEL>
inactive

$$$$
>  <COMPOUND>
C[C@@H](CN(C)C)CN1c2ccccc2Sc2ccccc21

>  <CATEGORY LABEL>
inactive

$$$$
>  <COMPOUND>
O=C1c2ccccc2C(=O)C1c1nc2ccccc2c(Br)c1O

>  <CATEGORY LABEL>
inactive

$$$$
>  <COMPOUND>
C/C=C\C/C=C/CCCCCCCCOC(C)=O

>  <CATEGORY LABEL>
inactive

$$$$
>  <COMPOUND>
O=C1NC(=O)c2cc([N+](=O)[O-])ccc21

>  <CATEGORY LABEL>
inactive

$$$$
>  <COMPOUND>
CCCCCCCCN

>  <CATEGORY LABEL>
inactive

$$$$
>  <COMPOUND>
Oc1cccc(O)c1O

>  <CATEGORY LABEL>
inactive

$$$$
>  <COMPOUND>
N#CCCN(CCO)CCO

>  <CATEGORY LABEL>
inactive

$$$$
>  <COMPOUND>
C[C@]1(Cn2ccnn2)[C@H](C(=O)O)N2C(=O)C[C@H]2S1(=O)=O

>  <CATEGORY LABEL>
inactive

$$$$
>  <COMPOUND>
CCCCCCCC/C=C\CCCCCCCCO

>  <CATEGORY LABEL>
inactive

$$$$
>  <COMPOUND>
c1ccc2c(c1)CCc1ccccc1N2

>  <CATEGORY LABEL>
inactive

$$$$
>  <COMPOUND>
CC(=O)OCCN(CCOC(C)=O)c1ccc(N=Nc2ccc([N+](=O)[O-])cc2C#N)cc1

>  <CATEGORY LABEL>
inactive

$$$$
>  <COMPOUND>
CCC(C)COC(=O)CC(C)C (centres undefined)

>  <CATEGORY LABEL>
inactive

$$$$
>  <COMPOUND>
CCCC(=O)C(=O)O

>  <CATEGORY LABEL>
inactive

$$$$
>  <COMPOUND>
NC(=O)c1ccncc1

>  <CATEGORY LABEL>
inactive

$$$$
>  <COMPOUND>
COc1cc(N)c(Cl)cc1C(=O)NC1CCN(CCCOc2ccc(F)cc2)CC1OC (centres undefined)

>  <CATEGORY LABEL>
inactive

$$$$
>  <COMPOUND>
C[C@@H](O)[C@H]1C(=O)N2C(C(=O)O)=C([C@H]3CCCO3)S[C@H]12

>  <CATEGORY LABEL>
inactive

$$$$
>  <COMPOUND>
Cc1cc(=O)c2c(O)c3c(O)cc(=O)c4c3c3c(cc(O)c1c23)C(C)(C)C=4O

>  <CATEGORY LABEL>
active

$$$$
>  <COMPOUND>
CC(=O)c1ccc([N+](=O)[O-])cc1

>  <CATEGORY LABEL>
inactive

$$$$
>  <COMPOUND>
O=C1CCCCCCCCCCOCCCCO1

>  <CATEGORY LABEL>
inactive

$$$$
>  <COMPOUND>
CC(CCC(=O)O)C(=O)O (centres undefined)

>  <CATEGORY LABEL>
inactive

$$$$
>  <COMPOUND>
Cc1cc(C)c(N)cc1C

>  <CATEGORY LABEL>
inactive

$$$$
>  <COMPOUND>
C[C@@H](O[C@H]1OCCN(Cc2n[nH]c(=O)[nH]2)[C@H]1c1ccc(F)cc1)c1cc(C(F)(F)F)cc(C(F)(F)F)c1

>  <CATEGORY LABEL>
active

$$$$
>  <COMPOUND>
C=C1CCC2CC1C2(C)C (centres undefined)

>  <CATEGORY LABEL>
inactive

$$$$
>  <COMPOUND>
CC(C)(C)C(=O)C(=O)O

>  <CATEGORY LABEL>
inactive

$$$$
>  <COMPOUND>
COc1ncnc(NS(=O)(=O)c2ccc(N)cc2)c1OC

>  <CATEGORY LABEL>
inactive

$$$$
>  <COMPOUND>
O=C(/C=C/c1ccccc1)OCCc1ccccc1

>  <CATEGORY LABEL>
inactive

$$$$
>  <COMPOUND>
Cc1ccccc1S

>  <CATEGORY LABEL>
inactive

$$$$
>  <COMPOUND>
CCCC(C(=O)OCCN(CC)CC)(c1ccccc1)c1ccccc1

>  <CATEGORY LABEL>
inactive

$$$$
